- assay_target: T1, human VISTA on the surface of cells (human, UniProt Q9H7M9 33-295)
- T1 sequence: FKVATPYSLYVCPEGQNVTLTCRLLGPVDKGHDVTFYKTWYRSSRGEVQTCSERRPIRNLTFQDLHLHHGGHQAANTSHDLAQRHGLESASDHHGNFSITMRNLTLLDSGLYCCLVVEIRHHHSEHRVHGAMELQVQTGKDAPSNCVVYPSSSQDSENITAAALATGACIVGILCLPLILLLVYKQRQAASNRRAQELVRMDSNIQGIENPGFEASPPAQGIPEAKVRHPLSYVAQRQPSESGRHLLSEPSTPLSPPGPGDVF
- procedure_details: cell-based or functional assay
reported_property: IC50, CPM (proliferation), SEB assay

[
  {
    "binder": "VSTB116 (antibody, V domains shown) VH: QVQLVQSGAEVKKPGSSVKVSCKASGGTFSSYAISWVRQAPGQGLEWMGGIIPIFGTANYAQKFQGRVTITADESTSTAYMELSSLRSEDTAVYYCARSSYGWSYEFDYWGQGTLVTVSS VL: DIQMTQSPSSLSASVGDRVTITCRASQSINTNLNWYQQKPGKAPKLLIYAASSLQSGVPSRFSGSGSGTDFTLTISSLQPEDFATYYCQQARDTPITFGQGTKVEIKR",
    "reading": "-1.44 log10 of antibody concentration"
  },
  {
    "binder": "VSTB53 (antibody, human IgG1, V domains shown) VH: QVQLVQSGAEVKKPGASVKVSCKASGYTFTHYTIHWVRQAPGQGLEWMGYIIPSSGYSEYNQKFKDRVTMTRDTSTSTVYMELSSLRSEDTAVYYCARGAYDDYYDYYAMDYWGQGTLVTVSS VL: DIVMTQSPLSLPVTPGEPASISCRSSQTIVHSNGNTYLEWYLQKPGQSPQLLIYKVSNRFSGVPDRFSGSGSGTDFTLKISRVEAEDVGVYYCFQASHVPWTFGQGTKLEIK",
    "reading": "-1.06 log10 of antibody concentration"
  }
]

Consider now this further binder.
The reported IC50, CPM (proliferation), SEB assay of the binder VSTB50 (antibody, human IgG1, V domains shown) VH: QVQLVQSGSELKKPGASVKVSCKASGYTFTNYGLNWVRQAPGQGLEWMGWINPYTGEPTYADDFKGRFVFSLDTSVSTAYLQICSLKAEDTAVYYCAREGYGNYIFPYWGQGTLVTVSS VL: DIVMTQTPLSLSVTPGQPASISCRASESVDTYANSLMHWYLQKPGQPPQLLIYRASNLESGVPDRFSGSGSGTDFTLKISRVEAEDVGVYYCQQTNEDPRTFGQGTKLEIK was -0.74 log10 of antibody concentration
